Data origin: patent US8871753B2

Recorded pIC50, one value per entry.
biological target: human JAK3 (a.a. 781-1124) (Homo sapiens); construct: JAK3 (a.a. 781-1124); His tag (N); made in house; host or cells: insect cells (baculovirus); experiment: In vitro JAK kinase assay (HTRF, phosphorylation of a biotinylated peptide), JAK3; assay type: biochemical; conditions: Table B1
Sequence (P52333 781-1124): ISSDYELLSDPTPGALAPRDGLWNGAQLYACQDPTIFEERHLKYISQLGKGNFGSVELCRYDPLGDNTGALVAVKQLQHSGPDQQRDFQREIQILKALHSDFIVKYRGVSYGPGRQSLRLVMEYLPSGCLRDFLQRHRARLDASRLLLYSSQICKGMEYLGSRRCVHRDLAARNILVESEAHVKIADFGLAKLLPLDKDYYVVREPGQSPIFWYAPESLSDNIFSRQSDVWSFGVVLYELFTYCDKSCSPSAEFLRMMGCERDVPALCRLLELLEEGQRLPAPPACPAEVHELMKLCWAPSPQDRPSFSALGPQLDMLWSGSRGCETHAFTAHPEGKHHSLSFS
pIC50: −log10 of the molar value. Structures can show the parent of a compound that is named as a salt.
endpoint-label: pIC50

| compound | endpoint-label | result-operator | measured-result |
| --- | --- | --- | --- |
| Cc1cc(C(=O)N2CCC(CN(C)Cc3ccc4cc3CCc3cncc(c3)Nc3ncc(Cl)c(n3)N4)CC2)no1 [Example B344, tris(trifluoroacetate)] | pIC50 | < | 6.40 |
| O=C(Nc1ccc2cc1CCc1cncc(c1)Nc1ncc(Cl)c(n1)N2)N[C@H]1CCN(C(=O)c2ccn[nH]2)C1 [Example B268, bis(trifluoroacetate)] | pIC50 | < | 5.00 |
| O=C(Nc1ccc2cc1CCc1cccc(c1)Nc1ncc(Cl)c(n1)N2)c1nc2ccccc2s1 [Example B74, trifluoroacetate] | pIC50 | < | 6.00 |
| O=C(Nc1ncc(Cl)s1)Nc1ccc2cc1CCc1cccc(c1)Nc1ncc(Cl)c(n1)N2 [Example B252, trifluoroacetate] | pIC50 | = | 6.92 |
| Cc1cc(C(=O)Nc2cc3cc(c2)Nc2nc(ncc2Cl)Nc2cccc(c2)CC3)no1 [Example B205, trifluoroacetate] | pIC50 | = | 6.29 |
| COc1cccc(N2CCN(C(=O)Nc3ccc4cc3CCc3cncc(c3)Nc3ncc(Cl)c(n3)N4)CC2)c1 [Example B304, tris(trifluoroacetate)] | pIC50 | < | 6.40 |
| O=C(Nc1ccc2cc1CCc1cccc(c1)Nc1ncc(Cl)c(n1)N2)c1ccno1 [Example B53, trifluoroacetate] | pIC50 | = | 7.77 |
| Cn1cncc1C(=O)Nc1cc2cc(c1)Nc1nc(ncc1Cl)Nc1cccc(c1)CC2 [Example B208, trifluoroacetate] | pIC50 | = | 7.08 |
| N#Cc1ccc(S(=O)(=O)Nc2ccc3cc2CCc2cccc(c2)Nc2ncc(Cl)c(n2)N3)cc1 [Example B154, trifluoroacetate] | pIC50 | = | 8.28 |
| CN1CC[C@H](NC(=O)Nc2ccc3cc2CCc2cccc(c2)Nc2ncc(Cl)c(n2)N3)C1 [Example B261, bis(trifluoroacetate)] | pIC50 | = | 7.09 |
| CCCc1ccccc1NC(=O)Nc1ccc2cc1CCc1cccc(c1)Nc1ncc(Cl)c(n1)N2 [Example B105, trifluoroacetate] | pIC50 | = | 7.37 |
| CC(C)(C)NC(=O)Nc1ccc2cc1CCc1cccc(c1)Nc1ncc(Cl)c(n1)N2 [Example B87, trifluoroacetate] | pIC50 | = | 7.38 |
| O=C(Nc1ccc2cc1CCc1cccc(c1)Nc1ncc(Cl)c(n1)N2)c1ccc(C(F)(F)F)cc1 [Example B75, trifluoroacetate] | pIC50 | = | 7.10 |
| CSc1ccccc1NC(=O)Nc1ccc2cc1CCc1cccc(c1)Nc1ncc(Cl)c(n1)N2 [Example B107, trifluoroacetate] | pIC50 | = | 7.80 |

---

target: human JAK3 (a.a. 781-1124) (Homo sapiens); construct: JAK3 (a.a. 781-1124); His tag (N); made in house; host or cells: insect cells (baculovirus); assay: In vitro JAK kinase assay (HTRF, phosphorylation of a biotinylated peptide), JAK3; type: biochemical; conditions: method AA1 (3 μM ATP) or AA2 (1000 μM ATP), not stated per value
pIC50: −log10 of the molar value.
This section presents molecules with their documented pIC50 values.

| molecule | pIC50 |
| --- | --- |
| O=C(CC1CCN(c2ccncc2)CC1)Nc1ccc2cc1CCc1cncc(c1)Nc1ncc(Cl)c(n1)N2 [Example A242, tris(trifluoroacetate)] | < 6.40 |
| COc1ccccc1NC(=O)N1CCC(CC(=O)Nc2ccc3cc2CCc2cncc(c2)Nc2ncc(Cl)c(n2)N3)CC1 [Example A152, bis(trifluoroacetate)] | < 7.00 |
| O=C(CC1CCN(c2nncs2)CC1)Nc1ccc2cc1CCc1cncc(c1)Nc1ncc(Cl)c(n1)N2 [Example A174, tris(trifluoroacetate)] | < 6.00 |
| Cc1cccc(N2CCC(CC(=O)Nc3ccc4cc3CCc3cncc(c3)Nc3ncc(Cl)c(n3)N4)CC2)c1C#N [Example A236, tris(trifluoroacetate)] | < 6.40 |
